# Tested on: enolase-pyruvate kinase-LDH
# procedure_details: Counter screening: control linked enzyme assay with 2PG
# Format: biochemical
# condition_set: 0.5 μM compound, pyruvate kinase M2, LDH without PGAM1, mean ± s.d. (n = 2)
measure_name: Inhibition in the Control Linked Enzyme Assay (0.5 μM) (%)

1 = O=C1c2ccccc2C(=O)c2c1cc(NS(=O)(=O)c1ccc(F)cc1)c(O)c2O
2 = O=C1c2ccccc2C(=O)c2c1cc(NS(=O)(=O)c1c(Cl)cc(Cl)cc1Cl)c(O)c2O
Which item exceeds the other in Inhibition in the Control Linked Enzyme Assay (0.5 μM), 1 or 2 ? Answer by stating the label of the chosen item.
1
